// data source = patent US12606557B2

Experiment: Plasma pharmacokinetics after a single intraperitoneal dose
Format: in vivo, male CD1 mice
Settings: male, CD1, mouse; 10 mg/kg IP, plasma
Method: The objective of this example was to investigate the plasma pharmacokinetics of UPHH-000171 following a single intraperitoneal dose administration to male CD1 mice at 10 and 50 mg/kg. Eighteen male mice were divided in to two groups with nine animals in each group, Animals in Group 1 and Group 2 were administered with solution formulation of UPHH-000171 in 5% NMP, 25% Solutol HS-15 and 70% normal saline intraperitoneally at 10 and 50 mg/kg dose, respectively. […]
MEASURE: Cmax (µg/mL)
Provide the reading as a plain figure in µg/mL.

Entry COc1ccc(Cn2ccc3ccc(C(=O)NS(C)(=O)=O)cc32)cc1 [UPHH-000171] ; Cmax = 50.9

---

assay: Plasma pharmacokinetics after a single intraperitoneal dose; type: in vivo, male CD1 mice; details: male, CD1, mouse, plasma, intraperitoneal, 10 mg/kg, 10 mg/kg IP, 8 hr; read-out: Plasma Concentration, individual animal
MEASURE: concentration at 8 hr (ng/mL)
Provide the reading as a plain figure in ng/mL.

Entry COc1ccc(Cn2ccc3ccc(C(=O)NS(C)(=O)=O)cc32)cc1 ; concentration at 8 hr = 35100

---

experiment: Blood pharmacokinetics after a single intraperitoneal dose; assay type: in vivo, male CD1 mice; details: male, CD1, mouse, in vivo, 10.4 mg/kg, 10.4 mg/kg IP, 24 hr; value excluded from data analysis
MEASURE: concentration at 24 hr
Could you kindly put the unit after your number?

Entry COc1ccc(Cn2ccc3ccc(C(=O)NO)cc32)cc1 [UPHH-123] ; concentration at 24 hr = 14.6 ng/mL

---

experiment: Blood pharmacokinetics after a single intraperitoneal dose; type: in vivo, male CD1 mice; details: male, CD1, mouse, in vivo, 52 mg/kg, 52 mg/kg IP, 1 hr; read-out: Blood Concentration, Mean
MEASURE: concentration at 1 hr (ng/mL)
Provide the reading as a plain figure in ng/mL.

Entry COc1ccc(Cn2ccc3ccc(C(=O)NO)cc32)cc1 [UPHH-123] ; concentration at 1 hr = 2330

---

test: Blood pharmacokinetics after a single intraperitoneal dose; assay type: in vivo, male CD1 mice; conditions: male, CD1, mouse, in vivo, 52 mg/kg, 52 mg/kg IP, 2 hr
MEASURE: concentration at 2 hr (ng/mL)
Provide the reading as a plain figure in ng/mL.

Entry COc1ccc(Cn2ccc3ccc(C(=O)NO)cc32)cc1 ; concentration at 2 hr = 360

---

test: Plasma pharmacokinetics after a single intraperitoneal dose; assay type: in vivo, male CD1 mice; settings: male, CD1, mouse, plasma, intraperitoneal, 10 mg/kg, 10 mg/kg IP, 2 hr; read-out: Plasma Concentration, individual animal
MEASURE: concentration at 2 hr (µg/mL)
Provide the reading as a plain figure in µg/mL.

Entry COc1ccc(Cn2ccc3ccc(C(=O)NS(C)(=O)=O)cc32)cc1 [UPHH-000171] ; concentration at 2 hr = 53.6

---

assay: Plasma pharmacokinetics after a single intraperitoneal dose; format: in vivo, male CD1 mice; conditions: male, CD1, mouse; 50 mg/kg IP, plasma
MEASURE: AUC(0-inf) (µg·h/mL)
Provide the reading as a plain figure in µg·h/mL.

Entry COc1ccc(Cn2ccc3ccc(C(=O)NS(C)(=O)=O)cc32)cc1 ; AUC(0-inf) = 1770
